PROTOCOL_DETAILS: Cytotoxicity against human MKN45 cells after 72 hrs by MTT assay
CONDITION_PARAMETERS: MKN-45, 72 h
ATTRIBUTE_MEASURED: pIC50
In plain terms, pIC50 is the concentration in mol/L turned into minus its base-10 logarithm.

Given the molecule COc1cc2c(Oc3ccc(N/C=C4\C(=O)NC(=O)N(c5ccccc5)C4=O)cc3F)ccnc2cc1OCCCN1CCCCC1 , what is its reported pIC50?
6.55

// lookup pIC50 for COc1cc2c(Oc3ccc(N/C=C4\C(=O)NC(=O)N(c5ccc(F)cc5)C4=O)cc3F)ccnc2cc1OCCCN1CCC(C)CC1
6.92

Please report the recorded pIC50 for COc1cc2c(Oc3ccc(N/C=C4\C(=O)NC(=O)N(c5ccccc5)C4=O)cc3F)ccnc2cc1OCCCN1CCC(C)CC1 .
7.34

Look up pIC50: COc1cc2c(Oc3ccc(N/C=C4\C(=O)NC(=O)N(c5ccc(F)cc5)C4=O)cc3F)ccnc2cc1OCCCN1CCCCC1
6.32

Query (molecule): COc1cc2c(Oc3ccc(N/C=C4\C(=O)NC(=O)N(c5ccc(F)cc5F)C4=O)cc3F)ccnc2cc1OCCCN1CCC(C)CC1 ; field requested: pIC50
6.34

Entry under review: COc1cc2c(Oc3ccc(N/C=C4\C(=O)NC(=O)N(c5ccccc5C(F)(F)F)C4=O)cc3F)ccnc2cc1OCCCN1CCN(C)CC1 . Reported pIC50?
5.46

Need pIC50 of COc1cc2c(Oc3ccc(N/C=C4\C(=O)NC(=O)N(c5ccc(F)cc5)C4=O)cc3F)ccnc2cc1OCCCN1CCN(C)CC1 , thanks.
6.92
